- System: NCI-H23 lung
- Assay Explanation: NCI tumour cell line growth inhibition, 48 h

{"columns": ["Compound", "TGI"],
 "data": [
  ["O=C(/C=C/c1ccc(O)c(-c2cc(C(=O)/C=C/c3ccc(O)cc3)c(O)cc2O)c1)c1ccc(O)cc1O", "> 50 µM"],
  ["COc1cc2c(cc1OCCCCN1C(=O)c3cccc4cccc(c34)C1=O)N=C[C@@H]1CCCN1C2=O", "11.5 µM"],
  ["C1COCCN1.C1COCCN1.NC1CCCCC1N.[Cl-].[Pt+2] (stereo unspecified)", "> 100 µM"],
  ["Cc1cccc(N(C(=O)Nc2ccc(Cl)c(Cl)c2)C2=NCC(C)S2)c1 (stereo unspecified)", "> 100 µM"],
  ["Cc1cc(O)c(C2=NN(c3ccc(S(N)(=O)=O)cc3)C(c3ccccc3Cl)C2)cc1Cl (stereo unspecified)", "3.58 µM"],
  ["COc1ccc(CC(=O)N2CCC3(C)CC(=O)CC=C23)cc1OC (stereo unspecified)", "> 100 µM"],
  ["CC(C)CC(NC(=O)OC(C)(C)C)C(=O)Nc1ccc(Nc2nc(F)nc(-c3c4ccccc4c4n3CCS4)n2)cc1 (stereo unspecified)", "33.1 µM"],
  ["Cn1c(O)c(C=Nc2ccccc2[N+](=O)[O-])c(=O)n(C)c1=O", "> 100 µM"],
  ["COc1cc(OC)nc(-n2c(N)c(C#N)c3ccc([N+](=O)[O-])cc3c2=O)n1", "> 100 µM"],
  ["COCC(O)Cn1ccnc1[N+](=O)[O-] (stereo unspecified)", "> 100 µM"],
  ["CN(C)CCNC(=O)c1cc([N+](=O)[O-])cc2c1Oc1ccccc1O2", "> 100 µM"],
  ["C=CC1CN2CCC1CC2C(O)c1ccnc2ccc(OC)cc12 (stereo unspecified)", "> 100 µM"],
  ["CCOC(=O)Cn1c(=O)c2nc(SC)sc2n(CC)c1=S", "> 100 µM"],
  ["O=C1C(N2CC2)=C(N2CC2)C(=O)C(N2CC2)=C1N1CC1", "0.245 µM"],
  ["O=C1CSC(c2ccc([N+](=O)[O-])cc2)N1c1ccc(-n2c(-c3ccccc3)nc3ccccc3c2=O)cc1 (stereo unspecified)", "> 100 µM"],
  ["CCOC(=O)c1nc2ccccc2nc1NCc1cc(OC)c(OC)c(OC)c1", "> 100 µM"],
  ["Cc1cc(N(CCC#N)CCC#N)ccc1/C(N=Nc1ccc(C(=O)O)cc1)=N\\NC(=O)c1cc(Cl)ccc1O", "> 100 µM"],
  ["Nc1nc(SCc2ccc([N+](=O)[O-])cc2)nc2c1ncn2C1OC(CO)C(O)C1O (stereo unspecified)", "> 100 µM"],
  ["O=C(CCCN1CCC2(CC1)CC(=O)N(N1CCCCCC1)C2=O)c1ccccc1", "> 100 µM"],
  ["COc1ccc2c3c1O[C@H]1C(OC)C=CC4C(C2)N(Cc2cccs2)CCC341 (stereo partly specified)", "> 100 µM"],
  ["Fc1ccc(C(OCCN2CCC3CCC(C2)N3C/C=C/c2ccco2)c2ccc(F)cc2)cc1 (stereo unspecified)", "24 µM"],
  ["COc1ccc(C(=O)c2sc(Nc3ccc(Cl)cc3)nc2N)cc1", "> 51.6 µM"],
  ["CC(C)OCC1CC(CC(=O)Nc2nncs2)C(=O)O1 (stereo unspecified)", "> 100 µM"],
  ["COc1cc(NC(C)CCCN)c2ncccc2c1 (stereo unspecified)", "> 100 µM"],
  ["CCC1CN2C(=N1)c1ccccc1-c1cc(Cl)ccc12 (stereo unspecified)", "15.2 µM"],
  ["C=CCc1cccc2cc(C(=O)Nc3ccccc3)c(=N)oc12", "> 100 µM"],
  ["O=C(N/C(=C/c1ccc(Cl)cc1Cl)c1nc2ccccc2s1)c1ccccc1", "26.5 µM"],
  ["c1ccc(C(c2ccccc2)c2cccnc2)cc1", "> 100 µM"],
  ["O=C(NC(=O)c1cn(CCN(CCO)C(=O)NCCCCCCNC(=O)N(CCO)CCn2cc(C(=O)NC(=O)OCc3ccccc3)c(=O)[nH]c2=O)c(=O)[nH]c1=O)OCc1ccccc1", "> 100 µM"],
  ["CCOP(=O)(OCC)C(Nc1ccc(Br)cc1)c1cccc([N+](=O)[O-])c1 (stereo unspecified)", "53 µM"],
  ["Nc1cccc(/C=C/C(=O)N2CCN(CCOC(c3ccccc3)c3ccccc3)CC2)c1", "35.5 µM"],
  ["CN(C)C(=S)/N=c1\\ssc(=S)n1Cc1ccccc1", "24.8 µM"],
  ["COC(=O)CNS(=O)(=O)c1ccc(-c2c3nc(c(-c4ccc(S(=O)(=O)NCC(=O)OC)cc4)c4ccc([nH]4)c(-c4ccc(S(=O)(=O)NCC(=O)OC)cc4)c4nc(c(-c5ccc(S(=O)(=O)NCC(=O)OC)cc5)c5ccc2[nH]5)C=C4)C=C3)cc1", "> 100 µM"],
  ["CCOC(=O)c1c(N)sc2c1C(C)(C(=O)OCC)CC2 (stereo unspecified)", "> 100 µM"],
  ["O=C1C2C3C=C4c5ccccc5N(c5ccccc5)C4(C2C(=O)N1c1ccc(Cl)cc1)[C@H]1C(=O)N(c2ccc(Cl)cc2)C(=O)[C@@H]31 (stereo partly specified)", "> 100 µM"],
  ["Cn1c2ccc3cc2c(=S)c2cc(ccc21)OCCOCCOCCOCCOCCO3", "> 10 µM"]
]}

###

- Test system: HOP-62 NSCLC
- Assay Explanation: NCI tumour cell line growth inhibition, 48 h

{"columns": ["Compound", "TGI"],
 "data": [
  ["O=C(OCN1C(=O)C2C3C=CC(C2C1=O)C1C2C(=O)N(COC(=O)C4CCCN4)C(=O)C2C31)C1CCCN1 (stereo not given)", "> 100 µM"],
  ["NC(=O)c1ccc(I)c(N=O)c1", "> 100 µM"],
  ["Cc1oc2c(C)c3oc(=O)cc(C)c3cc2c1CN1C(=O)C2OCCOCCOCCOCCOCCO[C@H]2C1=O (stereo not given in full)", "> 100 µM"],
  ["O=c1c2nc3ccccc3c(=O)n2ncn1-c1ccccc1Cl", "> 100 µM"],
  ["COCC(O)Cn1ccnc1[N+](=O)[O-] (stereo not given)", "> 100 µM"],
  ["O=C1Nc2nc3ccccc3n2N=C2CCCC12 (stereo not given)", "> 100 µM"],
  ["C=CCC1(OC(C)=O)C2OC(=O)C1(O)OCC2O (stereo not given)", "> 100 µM"],
  ["C[C@]12CCC(=O)C=C1CC[C@@H]1C2CC[C@]2(C)Nc3c(cnn3-c3ccccc3)CC12 (stereo not given in full)", "> 100 µM"],
  ["N#C/C(c1nc2ccccc2[nH]1)=c1\\s/c(=C/c2ccc(Cl)cc2)c(=O)n1-c1ccccc1", "> 100 µM"],
  ["O=C(c1cccs1)N(C(=S)OC12CC3CC(CC(C3)C1)C2)c1ccccc1", "> 100 µM"],
  ["COC(=O)c1sc(=S)sc1SCc1ccc(CSc2sc(=S)sc2C(=O)OC)cc1", "> 100 µM"],
  ["CC(C)C1=CC23CCC4C(C)(C(=O)O)CCCC4(C)C2CC1C1C(=O)N(c2ccccc2N2C(=O)C4C5CC6C7(C)CCCC(C)(C(=O)O)C7CCC6(C=C5C(C)C)C4C2=O)C(=O)C13 (stereo not given)", "18.9 µM"],
  ["OCC1C(/C=C/c2ccoc2)ON2CCCC12 (stereo not given)", "> 100 µM"],
  ["O=C1NC2(CCCCCC2)C2CCCCCCC12O (stereo not given)", "> 100 µM"],
  ["Cc1cc(N(CCC#N)CCC#N)ccc1/C(N=Nc1ccc(C(=O)O)cc1)=N\\NC(=O)c1cc(Cl)ccc1O", "65.4 µM"],
  ["CNC(=O)c1cccc2cc(Oc3ccnc4cc(OCC5(N)CC5)c(OC)cc34)ccc12", "27.6 µM"],
  ["CCC(C)[C@H]1O[C@]2(C=C[C@@H]1C)C[C@@H]1C[C@@H](C/C=C(\\C)[C@@H](OC3C[C@H](OC)C(O[C@H]4C[C@H](OC)[C@@H](O)[C@H](C)O4)[C@H](C)O3)[C@@H](C)/C=C/C=C3\\CO[C@@H]4[C@H](O)C(C)=C[C@@H](C(=O)O1)[C@]34O)O2 (stereo not given in full)", "6.53 µM"],
  ["CC1OC(OC2C[C@](O)(C(=O)CF)Cc3c(O)c4c(c(O)c32)C(=O)c2ccccc2C4=O)CC(N)C1O (stereo not given in full)", "0.0462 µM"],
  ["Fc1ccc(C(OCCN2CCC3CCC(C2)N3C/C=C/c2ccco2)c2ccc(F)cc2)cc1 (stereo not given)", "36.5 µM"],
  ["O=C1CSC(c2ccc([N+](=O)[O-])cc2)N1c1ccc(-n2c(-c3ccccc3)nc3ccccc3c2=O)cc1 (stereo not given)", "> 100 µM"]
]}
